- Tested on: SF-295 CNS
- assay.procedure: NCI-60 one-dose screen, 48 h
- recorded.conditions: 10 µM unless noted
About 83,000 compounds went through this panel and 20% of them were active in at least one assay; those are over-represented in the sample as a whole. Calls of active or inactive are those of the source. Rule for the calls: active = growth percent below 10; inactive = the rest.
Parameter call: string, one of active, inactive

Here's what some known entries look like.
[[record]]
compound = "c1cc(NCCCCN2CCOCC2)c2ccc3c(ccc4c(NCCN5CCOCC5)ccnc43)c2n1"
experimental_target = "SF-295 CNS"
category = "inactive"

[[record]]
compound = "CCCCn1c(C(=O)c2c[nH]c3ccccc23)n[nH]c1=S"
experimental_target = "SF-295 CNS"
category = "inactive"

[[record]]
compound = "CC(C)(C)c1cc(C(C)(C)c2ccccc2)cc(Cc2cc(C(C)(C)c3ccccc3)cc(C(C)(C)C)c2O)c1O"
experimental_target = "SF-295 CNS"
category = "inactive"


Input: Which outcome did this test record for the compound "COc1ccc(Nc2ncnc3ccc(-c4cncc(NS(C)(=O)=O)c4)cc23)cc1Cl" ?
Output: inactive

Input: Which outcome did this test record for the compound "CCOC(=O)C(=Cc1ccc(C#N)cc1)C(=O)OCC" ?
Output: inactive
